B1: library; a variant is named by its letters at N, in order (parent)
chain: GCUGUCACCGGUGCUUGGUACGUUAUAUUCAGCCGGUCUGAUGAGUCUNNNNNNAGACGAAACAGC

Variants of: B1
Assay: FACS-Seq fitted mean relative fluorescence mCherry/BFP without ligand (log10 relative fluorescence); HEK293T overexpressing SLC46A1; higher = higher reporter protein expression
Conditions: without (6R,S)-folinic acid; ligand present: no
Outcome label depends on FACS-Seq fitted mean (log10) relative to 0.3: at/above gives Met, below gives Not met.

>>> print(df.to_string())
   variant_id  category_label
0      AUACGG         Not met
1      AUAUUC         Not met
2      ACAUGG             Met
3      GACAGG             Met
4      UGCCAA         Not met
5      AUGGAC         Not met
6      AAAACA             Met
7      UCCAAG             Met
8      AGUCGU         Not met
9      ACUGGG         Not met

Check if FACS-Seq fitted mean (log10) >= 0.3 (inclusive). Item: "AGGCAU"
Met

Dear colleague, could you confirm whether "AAACGA" has FACS-Seq fitted mean (log10) at or above 0.3?
Not met

Check the entry "UCUUGC" : does FACS-Seq fitted mean (log10) equal or exceed 0.3?
Not met

Does "GAGACU" have a reported FACS-Seq fitted mean (log10) of at least 0.3?
Met

Tell me whether FACS-Seq fitted mean (log10) is at least 0.3 here: "AACCAG"
Met

Dear colleague, could you confirm whether "AAUCGC" has FACS-Seq fitted mean (log10) at or above 0.3?
Met

Would you say "UAGAAU" shows FACS-Seq fitted mean (log10) at minimum 0.3?
Met

Threshold query (FACS-Seq fitted mean (log10) >= 0.3) on "AACACG"
Met

Hello, I need to know if "UAGUAG" has measured FACS-Seq fitted mean (log10) not below 0.3. Thanks!
Not met

Hi, just wondering whether "UAAAGA" shows FACS-Seq fitted mean (log10) of 0.3 or higher.
Not met

API: above_or_equal(metric=FACS-Seq fitted mean (log10), cutoff=0.3) for item "AACAGU"
Not met
